The following compounds are listed with their measured MIC values.
# Tested on: Klebsiella pneumoniae
# Procedure Summary: Antimicrobial activity against Klebsiella pneumoniae ATCC BAA-2473 by broth microdilution method
# Type: functional
Positions of bridges follow the written chain, without caps; N, C: chain ends. Non-standard residues stand in square brackets, D forms with d. Residues, ends and D or L forms follow the SMILES beside them. *: point of attachment. X1 = CC[C@H](C)CCCCC(=O)*; Dab = NCC[C@H](N)C(=O)O
Note: unit µg/mL is implicit; provide only the numeric part.

Example compounds with recorded MIC:
N=C(N)NCC/C=C(\NC(=O)[C@H](CCCCN)NC(=O)[C@H](Cc1cnc[nH]1)NC(=O)[C@@H]1CCCN1C(=O)[C@@H](CCCN)NC(=O)CNC(=O)[C@@H](NC(=O)[C@@H](NC(=O)[C@@H](N)CCCCN)[C@@H](O)CN)[C@@H](O)CN)C(=O)N[C@@H](CCCCN)C(=O)NCCCCN    4
C[C@H](NC(=O)[C@@H](NC(=O)[C@@H](N)CCCCN)[C@@H](O)CN)C(=O)NCC(=O)N[C@H](CCCN)C(=O)N1CCC[C@H]1C(=O)N[C@@H](Cc1cnc[nH]1)C(=O)N[C@@H](CCCCN)C(=O)N/C(=C\CCNC(=N)N)C(=O)O    4

Then there is this compound:
[ask] Name the recorded MIC for CC[C@H](C)CCCCC(=O)N[C@@H](CCN)C(=O)N[C@H](C(=O)N[C@@H](CCN)C(=O)N[C@H]1CCNC(=O)[C@H]([C@@H](C)O)NC(=O)[C@H](CCN)NC(=O)[C@H](CCN)NC(=O)[C@H](CC(C)C)NC(=O)[C@@H](Cc2ccccc2)NC(=O)[C@H](CCN)NC1=O)[C@@H](C)O (X1-[Dab]T[Dab][Dab][Dab][dF]L[Dab][Dab]T; lactam 4-C) .
[reply] 0.5

---

# System: Klebsiella pneumoniae
# Procedure Summary: Antimicrobial activity against Klebsiella pneumoniae NCTC 13443 by broth microdilution method
# Format: functional
Positions of bridges follow the written chain, without caps; N, C: chain ends. Non-standard residues stand in square brackets, D forms with d. Residues, ends and D or L forms follow the SMILES beside them. *: point of attachment. X1 = CC[C@H](C)CCCCC(=O)*; Dab = NCC[C@H](N)C(=O)O
Measured Parameter: MIC (µg/mL)
Give the value, in units of µg/mL, as a plain number.

Use the examples below as a reference point.
N=C(N)NCC/C=C(\NC(=O)[C@H](CCCCN)NC(=O)[C@H](Cc1cnc[nH]1)NC(=O)[C@@H]1CCCN1C(=O)[C@@H](CCCN)NC(=O)CNC(=O)[C@@H](NC(=O)[C@@H](NC(=O)[C@@H](N)CCCCN)[C@@H](O)CN)[C@@H](O)CN)C(=O)N[C@@H](CCCCN)C(=O)NCCCCN    4
CC[C@H](C)CCCCC(=O)N[C@@H](CCN)C(=O)N[C@H](C(=O)N[C@@H](CCN)C(=O)N[C@H]1CCNC(=O)[C@H]([C@@H](C)O)NC(=O)[C@H](CCN)NC(=O)[C@H](CCN)NC(=O)[C@H](CC(C)C)NC(=O)[C@@H](Cc2ccccc2)NC(=O)[C@H](CCN)NC1=O)[C@@H](C)O (X1-[Dab]T[Dab][Dab][Dab][dF]L[Dab][Dab]T; lactam 4-C)    0.5

[ask] Entry under review: C[C@H](NC(=O)[C@@H](NC(=O)[C@@H](N)CCCCN)[C@@H](O)CN)C(=O)NCC(=O)N[C@H](CCCN)C(=O)N1CCC[C@H]1C(=O)N[C@@H](Cc1cnc[nH]1)C(=O)N[C@@H](CCCCN)C(=O)N/C(=C\CCNC(=N)N)C(=O)O . Reported MIC?
[reply] 4

---

Overview of recorded MIC for various compounds
# System: Klebsiella pneumoniae
# Procedure Summary: Antimicrobial activity against Klebsiella pneumoniae NCTC 13439 by broth microdilution method
# Format: functional
Positions of bridges follow the written chain, without caps; N, C: chain ends. Non-standard residues stand in square brackets, D forms with d. Residues, ends and D or L forms follow the SMILES beside them. *: point of attachment. X1 = CC[C@H](C)CCCCC(=O)*; Dab = NCC[C@H](N)C(=O)O
Reply with just the number (in µg/mL).

Use these answered entries as a reference point.
C[C@H](NC(=O)[C@@H](NC(=O)[C@@H](N)CCCCN)[C@@H](O)CN)C(=O)NCC(=O)N[C@H](CCCN)C(=O)N1CCC[C@H]1C(=O)N[C@@H](Cc1cnc[nH]1)C(=O)N[C@@H](CCCCN)C(=O)N/C(=C\CCNC(=N)N)C(=O)O    4
N=C(N)NCC/C=C(\NC(=O)[C@H](CCCCN)NC(=O)[C@H](Cc1cnc[nH]1)NC(=O)[C@@H]1CCCN1C(=O)[C@@H](CCCN)NC(=O)CNC(=O)[C@@H](NC(=O)[C@@H](NC(=O)[C@@H](N)CCCCN)[C@@H](O)CN)[C@@H](O)CN)C(=O)N[C@@H](CCCCN)C(=O)NCCCCN    2

[ask] For the compound CC[C@H](C)CCCCC(=O)N[C@@H](CCN)C(=O)N[C@H](C(=O)N[C@@H](CCN)C(=O)N[C@H]1CCNC(=O)[C@H]([C@@H](C)O)NC(=O)[C@H](CCN)NC(=O)[C@H](CCN)NC(=O)[C@H](CC(C)C)NC(=O)[C@@H](Cc2ccccc2)NC(=O)[C@H](CCN)NC1=O)[C@@H](C)O (X1-[Dab]T[Dab][Dab][Dab][dF]L[Dab][Dab]T; lactam 4-C) , what MIC is on record?
[reply] 0.5

---

# key: entry, value: MIC
# Test system: Escherichia coli
# Procedure Summary: Antimicrobial activity against Escherichia coli ATCC BAA-2340 by broth microdilution method
# Format: functional

[ask] If you can, please state the reported MIC value of CO/N=C(\C(=O)N[C@@H]1C(=O)N2C(C(=O)O)=C(CSc3nc(=O)c(O)nn3C)CS[C@H]12)c1csc(N)n1 .
[reply] > 64 µg/mL

[ask] What does the data say about its MIC? Entry: N=C(N)NCC/C=C(\NC(=O)[C@H](CCCCN)NC(=O)[C@H](Cc1cnc[nH]1)NC(=O)[C@@H]1CCCN1C(=O)[C@@H](CCCN)NC(=O)CNC(=O)[C@@H](NC(=O)[C@@H](NC(=O)[C@@H](N)CCCCN)[C@@H](O)CN)[C@@H](O)CN)C(=O)N[C@@H](CCCCN)C(=O)NCCCCN
[reply] 8 µg/mL

[ask] Quick one: MIC for C[C@H](NC(=O)[C@@H](NC(=O)[C@@H](N)CCCCN)[C@@H](O)CN)C(=O)NCC(=O)N[C@H](CCCN)C(=O)N1CCC[C@H]1C(=O)N[C@@H](Cc1cnc[nH]1)C(=O)N[C@@H](CCCCN)C(=O)N/C(=C\CCNC(=N)N)C(=O)O ?
[reply] 16 µg/mL

[ask] Given the entry O=C(O)c1cn(C2CC2)c2cc(N3CCNCC3)c(F)cc2c1=O , report its measured MIC.
[reply] > 64 µg/mL

---

# System: Klebsiella pneumoniae
# Procedure Summary: Antimicrobial activity against Klebsiella pneumoniae ATCC BAA-1904 by broth microdilution method
# Assay type: functional
Measured Parameter: MIC (mg/L)
Your answer should be a plain number; it is taken to be in mg/L.

Completed entries (count: 2):
C[C@@H](O)[C@H]1C(=O)N2C(C(=O)O)=C(SCCNC=N)C[C@H]12 [IMIPENEM ANHYDROUS]    64
O=C(O)c1cn(C2CC2)c2cc(N3CCNCC3)c(F)cc2c1=O    0.5

Proceed to the following item.
[ask] If you can, please state the reported MIC value of N=C(N)NCC/C=C(\NC(=O)[C@H](CCCCN)NC(=O)[C@H](Cc1cnc[nH]1)NC(=O)[C@@H]1CCCN1C(=O)[C@@H](CCCN)NC(=O)CNC(=O)[C@@H](NC(=O)[C@@H](NC(=O)[C@@H](N)CCCCN)[C@@H](O)CN)[C@@H](O)CN)C(=O)N[C@@H](CCCCN)C(=O)NCCCCN .
[reply] 2

---

# Tested on: Escherichia coli
# Procedure Summary: Antimicrobial activity against Escherichia coli ATCC BAA-2469 by broth microdilution method
# Assay type: functional
Positions of bridges follow the written chain, without caps; N, C: chain ends. Non-standard residues stand in square brackets, D forms with d. Residues, ends and D or L forms follow the SMILES beside them. *: point of attachment. X1 = CC[C@H](C)CCCCC(=O)*; Dab = NCC[C@H](N)C(=O)O
Measured Parameter: MIC (µg/mL)
A number alone suffices; assume µg/mL.

Answered examples (2):
C[C@H](NC(=O)[C@@H](NC(=O)[C@@H](N)CCCCN)[C@@H](O)CN)C(=O)NCC(=O)N[C@H](CCCN)C(=O)N1CCC[C@H]1C(=O)N[C@@H](Cc1cnc[nH]1)C(=O)N[C@@H](CCCCN)C(=O)N/C(=C\CCNC(=N)N)C(=O)O    16
N=C(N)NCC/C=C(\NC(=O)[C@H](CCCCN)NC(=O)[C@H](Cc1cnc[nH]1)NC(=O)[C@@H]1CCCN1C(=O)[C@@H](CCCN)NC(=O)CNC(=O)[C@@H](NC(=O)[C@@H](NC(=O)[C@@H](N)CCCCN)[C@@H](O)CN)[C@@H](O)CN)C(=O)N[C@@H](CCCCN)C(=O)NCCCCN    4

[ask] I'd like to know its MIC. The compound in question is CC[C@H](C)CCCCC(=O)N[C@@H](CCN)C(=O)N[C@H](C(=O)N[C@@H](CCN)C(=O)N[C@H]1CCNC(=O)[C@H]([C@@H](C)O)NC(=O)[C@H](CCN)NC(=O)[C@H](CCN)NC(=O)[C@H](CC(C)C)NC(=O)[C@@H](Cc2ccccc2)NC(=O)[C@H](CCN)NC1=O)[C@@H](C)O (X1-[Dab]T[Dab][Dab][Dab][dF]L[Dab][Dab]T; lactam 4-C)
[reply] 0.5
